Where these numbers come from: ChEMBL document CHEMBL3853329

Test: in vivo
Conditions: rat, po, 5 mg/kg
Catalogue of molecules with associated Fa
ENDPOINT_LABEL: Fa (%)

molecule=Cn1c(SCCCN2CC[C@]3(C[C@@H]3c3ccc(C(F)(F)F)cc3)C2)nnc1-c1ccc(C(N)=O)nc1 endpoint_label=Fa units_text=% result_value=40
molecule=Cc1nc(C(N)=O)ccc1-c1nnc(SCCCN2CC[C@]3(C[C@@H]3c3ccc(C(F)(F)F)cc3)C2)n1C endpoint_label=Fa units_text=% result_value=54
molecule="Cn1c(SCCCN2CC[C@]3(C[C@@H]3c3ccc(C(F)(F)F)cc3)C2)nnc1C1=CCC(=O)N=C1 (stereo in doubt)" endpoint_label=Fa units_text=% result_value=1
molecule=Cn1c(SCCCN2CC[C@]3(C[C@@H]3c3ccc(C(F)(F)F)cc3)C2)nnc1C1CCOCC1 endpoint_label=Fa units_text=% result_value=57
molecule=Cn1c(SCCCN2CC[C@]3(C[C@@H]3c3ccc(C(F)(F)F)cc3)C2)nnc1-c1ccc(=O)n(C)c1 endpoint_label=Fa units_text=% result_value=17

====

Test: in vivo
Conditions: rat, po, 5 mg/kg
ENDPOINT_LABEL: bioavailability

compound=Cn1c(SCCCN2CC[C@]3(C[C@@H]3c3ccc(C(F)(F)F)cc3)C2)nnc1-c1ccc(C(N)=O)nc1 endpoint_label=bioavailability result_value=26%
compound="Cn1c(SCCCN2CC[C@]3(C[C@@H]3c3ccc(C(F)(F)F)cc3)C2)nnc1C1=CCC(=O)N=C1 (stereo in doubt)" endpoint_label=bioavailability result_value=2%
compound=Cn1c(SCCCN2CC[C@]3(C[C@@H]3c3ccc(C(F)(F)F)cc3)C2)nnc1-c1ccc(=O)n(C)c1 endpoint_label=bioavailability result_value=10%
compound=Cc1nc(C(N)=O)ccc1-c1nnc(SCCCN2CC[C@]3(C[C@@H]3c3ccc(C(F)(F)F)cc3)C2)n1C endpoint_label=bioavailability result_value=39%
compound=Cn1c(SCCCN2CC[C@]3(C[C@@H]3c3ccc(C(F)(F)F)cc3)C2)nnc1C1CCOCC1 endpoint_label=bioavailability result_value=11%

====

Test: in vitro
Details: rat, liver microsomes
Entries get a class label from measured microsomal CLint at 0.5 h, 0.5 µM. See ranges: interval 1 (below 60 µL/min/mg), interval 2 (60 µL/min/mg to below 100 µL/min/mg), interval 3 (100 µL/min/mg or more)

compound="Cc1ncoc1-c1nnc(SCCCN2CC[C@]3(C[C@H]3c3ccc(F)cc3C(F)(F)F)C2)n1C (single isomer, unassigned; enantiomer 1)" cat="interval 1"
compound="Cn1c(SCCCN2CC[C@]3(C[C@@H]3c3ccc(C(F)(F)F)cc3)C2)nnc1C1=CCC(=O)N=C1 (stereo in doubt)" cat="interval 1"
compound=Cn1c(SCCCN2CC[C@]3(C[C@@H]3c3ccc(C(F)(F)F)cc3)C2)nnc1-c1ccc(-c2ncco2)cc1 cat="interval 3"
compound=Cn1c(SCCCN2CC[C@]3(C[C@@H]3c3ccc(C(F)(F)F)cc3)C2)nnc1-c1ccc(=O)n(C)c1 cat="interval 1"
compound=Cc1ncoc1-c1nnc(SCCCN2CC[C@]3(C[C@@H]3c3ccc(C(F)(F)F)cc3)C2)n1C cat="interval 2"
compound=Cc1ncoc1-c1nnc(SCCCN2CC[C@@]3(C[C@H]3c3ccc(F)cc3)C2)n1C cat="interval 2"
compound=Cc1ncoc1-c1nnc(SCCCN2CC[C@@]3(C[C@H]3c3ccc(F)cc3F)C2)n1C cat="interval 3"
compound=Cc1ncoc1-c1nnc(SCCCN2CC[C@]3(C[C@H]3c3ccc(C(F)(F)F)cc3)C2)n1C cat="interval 3"

====

Catalogue of compounds with associated Vd
Test: in vivo
Conditions: rat, iv, 1 mg/kg
ENDPOINT_LABEL: Vd (L/kg)

compound=Cn1c(SCCCN2CC[C@]3(C[C@@H]3c3ccc(C(F)(F)F)cc3)C2)nnc1-c1ccc(=O)n(C)c1 result_value=4
compound=Cn1c(SCCCN2CC[C@]3(C[C@@H]3c3ccc(C(F)(F)F)cc3)C2)nnc1-c1ccc(C(N)=O)nc1 result_value=3.2
compound=Cn1c(SCCCN2CC[C@]3(C[C@@H]3c3ccc(C(F)(F)F)cc3)C2)nnc1C1CCOCC1 result_value=3.7
compound=Cc1nc(C(N)=O)ccc1-c1nnc(SCCCN2CC[C@]3(C[C@@H]3c3ccc(C(F)(F)F)cc3)C2)n1C result_value=5.5
compound="Cn1c(SCCCN2CC[C@]3(C[C@@H]3c3ccc(C(F)(F)F)cc3)C2)nnc1C1CC2CCC(C1)O2 (single isomer, unassigned; enantiomer 1)" result_value=2.6
compound="Cn1c(SCCCN2CC[C@]3(C[C@@H]3c3ccc(C(F)(F)F)cc3)C2)nnc1C1=CCC(=O)N=C1 (stereo in doubt)" result_value=9.1

====

Experiment: in vivo
Conditions: rat, brain
ENDPOINT_LABEL: Kp

smiles=Cn1c(SCCCN2CC[C@]3(C[C@@H]3c3ccc(C(F)(F)F)cc3)C2)nnc1-c1ccc(=O)n(C)c1 result_value=0.4
smiles=Cc1nc(C(N)=O)ccc1-c1nnc(SCCCN2CC[C@]3(C[C@@H]3c3ccc(C(F)(F)F)cc3)C2)n1C result_value=1.5
smiles=Cn1c(SCCCN2CC[C@]3(C[C@@H]3c3ccc(C(F)(F)F)cc3)C2)nnc1C1CCOCC1 result_value=0.3

====

Experiment: in vitro
Conditions: human, liver microsomes
Response key: yes means microsomal CLint at 0.5 h, 0.5 µM >= 400 µL/min/mg; no means microsomal CLint at 0.5 h, 0.5 µM < 400 µL/min/mg.

compound=Cc1nc(C(N)=O)ccc1-c1nnc(SCCCN2CC[C@]3(C[C@@H]3c3ccc(C(F)(F)F)cc3)C2)n1C cat=no
compound=Cn1c(SCCCN2CC[C@]3(C[C@@H]3c3ccc(C(F)(F)F)cc3)C2)nnc1C1CCCCC1 cat=no
compound=Cn1c(SCCCN2CC[C@]3(C[C@@H]3c3ccc(C(F)(F)F)cc3)C2)nnc1-c1ccc(C(N)=O)cc1 cat=no
compound=Cn1c(SCCCN2CC[C@]3(C[C@@H]3c3ccc(C(F)(F)F)cc3F)C2)nnc1-c1cccnc1 cat=yes
compound="Cc1ncoc1-c1nnc(SCCCN2CC[C@]3(C[C@H]3c3ccc(F)cc3C(F)(F)F)C2)n1C (single isomer, unassigned; enantiomer 1)" cat=no
compound=Cn1c(SCCCN2CC[C@]3(C[C@@H]3c3ccc(C(F)(F)F)cc3)C2)nnc1-c1ccc(-c2ncco2)cc1 cat=no

====

Assay: in vitro
Details: rat, liver microsomes
Catalogue of compounds with associated microsomal CLint at 0.5 h, 0.5 µM
ENDPOINT_LABEL: microsomal CLint at 0.5 h, 0.5 µM (µL/min/mg)

compound=Cn1c(SCCCN2CC[C@]3(C[C@@H]3c3ccc(C(F)(F)F)cc3)C2)nnc1-c1ccc(C(N)=O)cc1 units_text=µL/min/mg modifier_sign== result_value=41
compound="Cn1c(SCCCN2CC[C@]3(C[C@@H]3c3ccc(C(F)(F)F)cc3)C2)nnc1C1CC2CCC(C1)O2 (single isomer, unassigned; enantiomer 1)" units_text=µL/min/mg modifier_sign== result_value=21.3
compound=Cn1c(SCCCN2CC[C@]3(C[C@@H]3c3ccc(C(F)(F)F)cc3)C2)nnc1C1CCCCC1 units_text=µL/min/mg modifier_sign== result_value=201
compound="Cn1c(SCCCN2CC[C@]3(C[C@@H]3c3ccc(C(F)(F)F)cc3)C2)nnc1C1CCNC(=O)C1 (single isomer, unassigned)" units_text=µL/min/mg modifier_sign=< result_value=11

====

Assay: in vivo
Conditions: rat
For each record, check the reported half-life: if it is below 2 h write 1 (yes), else write 0 (no).

compound=Cn1c(SCCCN2CC[C@]3(C[C@@H]3c3ccc(C(F)(F)F)cc3)C2)nnc1-c1ccc(=O)n(C)c1 cat="1 (yes)"
compound="Cn1c(SCCCN2CC[C@]3(C[C@@H]3c3ccc(C(F)(F)F)cc3)C2)nnc1C1=CCC(=O)N=C1 (stereo in doubt)" cat="0 (no)"
compound=Cn1c(SCCCN2CC[C@]3(C[C@@H]3c3ccc(C(F)(F)F)cc3)C2)nnc1-c1ccc(C(N)=O)nc1 cat="0 (no)"
compound=Cc1nc(C(N)=O)ccc1-c1nnc(SCCCN2CC[C@]3(C[C@@H]3c3ccc(C(F)(F)F)cc3)C2)n1C cat="0 (no)"
compound=Cn1c(SCCCN2CC[C@]3(C[C@@H]3c3ccc(C(F)(F)F)cc3)C2)nnc1C1CCOCC1 cat="1 (yes)"

====

Test: in vivo
Conditions: rat, whole blood, iv, 1 mg/kg
ENDPOINT_LABEL: clearance (L/h/kg)

compound="Cn1c(SCCCN2CC[C@]3(C[C@@H]3c3ccc(C(F)(F)F)cc3)C2)nnc1C1=CCC(=O)N=C1 (stereo in doubt)" endpoint_label=clearance units_text=L/h/kg result_value=2.88
compound="Cn1c(SCCCN2CC[C@]3(C[C@@H]3c3ccc(C(F)(F)F)cc3)C2)nnc1C1CC2CCC(C1)O2 (single isomer, unassigned; enantiomer 1)" endpoint_label=clearance units_text=L/h/kg result_value=4.8
compound=Cn1c(SCCCN2CC[C@]3(C[C@@H]3c3ccc(C(F)(F)F)cc3)C2)nnc1-c1ccc(=O)n(C)c1 endpoint_label=clearance units_text=L/h/kg result_value=1.81
compound=Cc1nc(C(N)=O)ccc1-c1nnc(SCCCN2CC[C@]3(C[C@@H]3c3ccc(C(F)(F)F)cc3)C2)n1C endpoint_label=clearance units_text=L/h/kg result_value=1.27
compound=Cn1c(SCCCN2CC[C@]3(C[C@@H]3c3ccc(C(F)(F)F)cc3)C2)nnc1C1CCOCC1 endpoint_label=clearance units_text=L/h/kg result_value=5.24
compound=Cn1c(SCCCN2CC[C@]3(C[C@@H]3c3ccc(C(F)(F)F)cc3)C2)nnc1-c1ccc(C(N)=O)nc1 endpoint_label=clearance units_text=L/h/kg result_value=1.16
